Measurement Label: melting point (°C)

* CS(=O)(=O)NCCCOc1ccc(-c2ccc(=O)n(Cc3ccc(Cl)cc3F)c2)cc1 [6-71] | 157
* COc1ccc(-c2cn(Cc3ccc(Cl)cc3)c(=O)cn2)cc1 [12-06] | 133
* O=c1cc(OCCc2ccccc2)ccn1Cc1cccc(F)c1 [7-03] | 93
* CC(C)Cc1ccc(-c2ccc(=O)n(Cc3ccc(Cl)cc3)c2)cc1 [2-04] | 115
* CC(=O)COc1ccc(-c2ccc(=O)n(Cc3ccc(Cl)cc3F)c2)cc1 [6-40] | 127
* O=c1ccc(-c2ccc(CO)cc2)cn1Cc1ccc(Cl)cc1F [6-26] | 176

(A) N#Cc1ccc(-c2ccc(=O)n(Cc3ccccc3)c2)cc1 [1-25]
(B) COc1ccc(-c2ccc(=O)n(Cc3ccc(Cl)cc3)c2)cn1 [2-62]
Request: Name the one with the greater melting point value, either A or B as given. Kindly state the label of the option you pick.
Response: B

----------
Measurement Label: melting point (°C)

Some molecules with recorded melting point:
* CCc1ccc(-c2ccc(=O)n(Cc3ccccc3)c2)cc1 | 80
* CC(C)COc1ccc(-c2ccc(=O)n(Cc3ccc(Cl)cc3F)c2)cc1 | 88
* O=c1ccc(-c2ccc3c(c2)OCO3)cn1Cc1ccc(F)c(F)c1 | 181
* CC(C)Oc1ccc(-c2ccc(=O)n(Cc3ccc(Cl)cc3)c2)cc1 | 118

(I) CC(C)CCn1ccc(-c2cccs2)c(C#N)c1=O
(II) CC(=O)Nc1cccc(-c2ccc(=O)n(Cc3ccc(Cl)cc3F)c2)c1
Request: Between I and II , whose recorded melting point is greater? Respond using the label that marks the chosen record.
Response: II

(a) O=c1c2ccccc2ccn1Cc1ccc(F)cc1
(b) O=c1ccc(-c2ccc(OCCCN3CCOCC3)cc2)cn1Cc1ccc(Cl)cc1F
Request: Given a and given b , which shows the smaller recorded melting point? Identify your pick by its label.
Response: a
(a: 107 °C, b: 153 °C)

(I) CCSc1ccc(-c2ccc(=O)n(Cc3ccc(Cl)cc3)c2)cc1
(II) CS(=O)(=O)Nc1cccc(-c2ccc(=O)n(Cc3ccc(Cl)cc3)c2)c1
(III) O=c1ccc(-c2ccc3cccnc3c2)cn1Cc1ccc(Cl)cc1
Request: Ranking field: melting point; order: falling. Put the labels in the requested order and write them down.
Response: III, II, I
(III: 261 °C, II: 169 °C, I: 109 °C)

----------
Measurement Label: melting point (°C)

Worked examples follow.
• O=c1ccc(-c2ccc(C(F)(F)F)cc2)cn1Cc1ccc(Cl)cc1F = 127
• O=c1ccc(C2CCCCC2)cn1Cc1ccc(Cl)cc1 = 72

(P) CCOC(=O)c1ccc(-c2ccc(=O)n(Cc3ccccc3)c2)cc1
(Q) O=c1ccc(-c2ccc(CCCO)cc2)cn1Cc1ccc(Cl)cc1
Request: Could you please tell me which of these two has the higher melting point: P or Q ? Mark your selection by writing its label.
Response: Q

(1) COc1ccc(-c2ccc(=O)n(Cc3ccc(Cl)cc3F)c2)cc1OC
(2) COCCOc1ccc(-c2ccc(=O)n(Cc3ccc(Cl)cc3F)c2)cc1
Request: Problem: Given the entries 1 and 2 , determine which has the lower reported melting point. State your choice using its label.
Response: 2
(2: 90 °C, 1: 141 °C)

(A) COc1ccc(-c2ccc(=O)n(Cc3noc(-c4ccccc4)n3)c2)cc1
(B) O=c1ccc(-c2ccc(S(=O)(=O)N3CCCC3)cc2)cn1Cc1ccc(Cl)cc1F
Request: Compare A and B and name the one whose reported melting point is smaller. # reply format: chosen label
Response: A

(I) Cc1ccc(-c2ccc(=O)n(Cc3ccccc3)c2)cc1C
(II) O=C(O)CCc1ccc(-c2ccc(=O)n(Cc3ccc(Cl)cc3)c2)cc1
Request: Which has the smaller recorded melting point, I or II ? The response must carry the label of the picked entry.
Response: I
(I: 118 °C, II: 185 °C)
